// reported polymerase ribozyme fitness (log ratio) for each item listed
B1: TPR t1 (parent)
chain: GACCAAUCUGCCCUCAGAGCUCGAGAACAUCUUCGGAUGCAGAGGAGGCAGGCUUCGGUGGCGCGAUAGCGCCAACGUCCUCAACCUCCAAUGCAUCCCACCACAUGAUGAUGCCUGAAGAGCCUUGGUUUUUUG

Variants of: B1
experiment summary: polymerase ribozyme fitness, log enrichment relative to wild type (log ratio); higher = more active; in vitro selection for triplet polymerase activity
Give the figure only, with no unit attached.

Use these answered entries as a reference point.
mutation spec	polymerase ribozyme fitness (log ratio)
A50U C56U	-0.861
C8U G69A	-1.72
U7A G25A G42U A50U G61A C85G A90C C123U U133G	-8.16
G10A C11U C40U C72G C104G C124U U133C	-5.5
C13G G35C G47A C80U A105C G107U G117A	-7.66
G10A U33C C86A A111U	-6.34

Any idea what its polymerase ribozyme fitness (log ratio) is? The variant is G23C G44U C88U A121G
-6.39

Request: G47U G58C
-0.433

Another: A2U G63A C86A
-4.44

Same lookup for G45A G60U C64U C94U A105U C124A G127A , please.
-5.55

Now try A18G G93A .
-3.21

G61U A108C , same question.
-3.81

Cool, now G44C A46U C86U
-2.43
